measuredOn: Scrib PDZ-3 domain (Homo sapiens, UniProt Q14160)
Construct: ROC curves of DomPep prediction for the three Scrib PDZ-1/2/3 domains
Sequence (Q14160 1004-1093 limits assumed): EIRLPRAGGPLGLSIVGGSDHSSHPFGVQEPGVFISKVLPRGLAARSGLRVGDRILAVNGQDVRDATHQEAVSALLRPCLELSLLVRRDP
protocolText: In-solution fluorescence polarization binding of peptides to Scrib PDZ3
runParameters: Kd value of 100 µM applied as binding cutoff, NB without definition
Residues, ends and D or L forms follow the SMILES beside them.
propertyMeasured: Kd (µM)
Give bare numbers, in µM.

Kd recorded for this molecule, CC(C)C[C@H](NC(=O)[C@H](CS)NC(=O)[C@H](CC(=O)O)NC(=O)[C@@H](NC(=O)[C@H](CC(N)=O)NC(=O)[C@H](CCCNC(=N)N)NC(=O)[C@H](CC(C)C)NC(=O)CNC(=O)CNC(=O)[C@@H](N)CC(=O)O)C(C)C)C(=O)O [TBK1] (H-DGGLRNVDCL-OH) , is 67.8

###

measuredOn: Scrib PDZ-2 domain (Homo sapiens, UniProt Q14160)
Construct: ROC curves of DomPep prediction for the three Scrib PDZ-1/2/3 domains
Sequence (Q14160 862-950 limits assumed): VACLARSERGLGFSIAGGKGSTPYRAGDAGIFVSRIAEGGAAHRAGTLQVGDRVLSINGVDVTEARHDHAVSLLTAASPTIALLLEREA
protocolText: In-solution fluorescence polarization binding of peptides to Scrib PDZ2
runParameters: Kd value of 100 µM applied as binding cutoff, NB without definition, read-out: Kd (µM) PDZ2
Residues, ends and D or L forms follow the SMILES beside them.
propertyMeasured: Kd

- CC(C)C[C@H](NC(=O)[C@H](CO)NC(=O)[C@H](CO)NC(=O)[C@H](CCC(=O)O)NC(=O)[C@H](Cc1ccc(O)cc1)NC(=O)[C@H](CO)NC(=O)[C@@H](NC(=O)[C@H](C)NC(=O)[C@@H](NC(=O)[C@@H](N)CCCCN)C(C)C)[C@@H](C)O)C(=O)O [STK29] (H-KVATSYESSL-OH): > 100 µM
- CC(C)[C@H](NC(=O)[C@H](CO)NC(=O)[C@@H](NC(=O)[C@@H](NC(=O)CNC(=O)[C@H](CCC(=O)O)NC(=O)[C@H](C)NC(=O)[C@H](CCCNC(=N)N)NC(=O)[C@H](CCC(=O)O)NC(=O)[C@@H](N)CS)[C@@H](C)O)C(C)C)C(=O)O [MUSK] (H-CERAEGTVSV-OH): > 100 µM
- CC(C)[C@H](NC(=O)[C@@H]1CCCN1C(=O)[C@@H](NC(=O)[C@@H]1CCCN1C(=O)CNC(=O)[C@H](CC(N)=O)NC(=O)[C@H](CCCCN)NC(=O)[C@H](CO)NC(=O)[C@H](CCC(N)=O)NC(=O)[C@@H](N)[C@@H](C)O)C(C)C)C(=O)O [EPHA3] (H-TQSKNGPVPV-OH): > 100 µM

Below are some compounds; for each one, tell me its Kd.
1. CSCC[C@H](NC(=O)[C@H](CC(C)C)NC(=O)[C@@H](NC(=O)[C@H](CS)NC(=O)[C@H](CCCCN)NC(=O)CNC(=O)[C@H](CCCCN)NC(=O)[C@@H](NC(=O)[C@H](CCCNC(=N)N)NC(=O)[C@@H](N)CC(=O)O)C(C)C)[C@@H](C)O)C(=O)O [DIRAS1] (H-DRVKGKCTLM-OH; N-terminus and C-terminus assumed)
2. CC(C)C[C@H](NC(=O)[C@@H](NC(=O)CNC(=O)[C@H](CC(N)=O)NC(=O)[C@H](CCCCN)NC(=O)[C@H](CO)NC(=O)[C@H](CC(=O)O)NC(=O)[C@H](Cc1ccc(O)cc1)NC(=O)[C@@H](N)CCCNC(=N)N)[C@@H](C)O)C(=O)N[C@H](C(=O)O)C(C)C [C11orf52] (H-RYDSKNGTLV-OH)
3. CC[C@H](C)[C@H](NC(=O)[C@@H](NC(=O)[C@H](CCC(=O)O)NC(=O)[C@H](CO)NC(=O)[C@@H]1CCCN1C(=O)[C@H](CCC(N)=O)NC(=O)[C@H](C)NC(=O)[C@H](CO)NC(=O)[C@@H](N)CO)[C@@H](C)O)C(=O)N[C@@H](CC(C)C)C(=O)O [ZNF654] (H-SSAQPSETIL-OH)
4. CC(C)C[C@H](NC(=O)[C@@H]1CCCN1C(=O)[C@@H](NC(=O)[C@H](CCC(=O)O)NC(=O)[C@H](CCCCN)NC(=O)[C@H](CO)NC(=O)[C@@H](NC(=O)[C@H](CCCNC(=N)N)NC(=O)[C@H](C)NC(=O)CN)C(C)C)[C@@H](C)O)C(=O)O [MAPK12] (H-GARVSKETPL-OH)

Response line:
> 100 µM
> 100 µM
32.1 µM
56.1 µM

###

measuredOn: Scrib PDZ-2 domain (Homo sapiens)
Construct: ROC curves of DomPep prediction for the three Scrib PDZ-1/2/3 domains
protocolText: In-solution fluorescence polarization binding of peptides to Scrib PDZ2
runParameters: Kd value of 100 µM applied as binding cutoff, NB without definition, read-out: Kd (µM) PDZ2
Residues, ends and D or L forms follow the SMILES beside them.
propertyMeasured: Kd

* CC(C)C[C@H](NC(=O)[C@@H](N)C(C)C)C(=O)N[C@@H](CCC(N)=O)C(=O)N[C@@H](CCCNC(=N)N)C(=O)N[C@@H](Cc1c[nH]cn1)C(=O)N[C@H](C(=O)N[C@H](C(=O)NCC(=O)N[C@@H](CCCCN)C(=O)N[C@@H](C)C(=O)O)[C@@H](C)O)[C@@H](C)O [ACBD6] (H-VLQRHTTGKA-OH; N-terminus and C-terminus assumed) | > 100 µM
* CC[C@H](C)[C@H](NC(=O)[C@@H](NC(=O)[C@H](Cc1ccccc1)NC(=O)[C@H](CCC(=O)O)NC(=O)[C@@H]1CCCN1C(=O)[C@H](CC(N)=O)NC(=O)[C@@H](NC(=O)[C@@H](N)Cc1ccc(O)cc1)[C@@H](C)O)C(C)C)C(=O)N[C@@H](CC(N)=O)C(=O)N[C@H](C(=O)O)C(C)C [PRKCB1] (H-YTNPEFVINV-OH; N-terminus and C-terminus assumed) | > 100 µM

Per the reported Scrib PDZ-2 domain (Homo sapiens) data, CC(C)C[C@H](NC(=O)[C@H](CO)NC(=O)[C@@H](NC(=O)[C@H](CCC(=O)O)NC(=O)[C@H](CCC(=O)O)NC(=O)[C@H](CS)NC(=O)[C@@H](NC(=O)[C@H](CCCNC(=N)N)NC(=O)[C@@H](NC(=O)[C@@H]1CCCN1)C(C)C)C(C)C)[C@@H](C)O)C(=O)O [FAM105B] (H-PVRVCEETSL-OH) has Kd of 17.6 µM

###

measuredOn: Scrib PDZ-1 domain (Homo sapiens, UniProt Q14160)
Construct: ROC curves of DomPep prediction for the three Scrib PDZ-1/2/3 domains
Sequence (Q14160 728-815 limits assumed): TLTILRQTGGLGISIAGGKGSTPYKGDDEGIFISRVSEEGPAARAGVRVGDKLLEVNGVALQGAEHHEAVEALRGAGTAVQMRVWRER
protocolText: In-solution fluorescence polarization binding of peptides to Scrib PDZ1
runParameters: Kd value of 100 µM applied as binding cutoff, NB without definition, read-out: Kd (µM) PDZ1
Residues, ends and D or L forms follow the SMILES beside them.
propertyMeasured: Kd (µM)
Answers are plain numbers, in µM.

Kd recorded for this compound, CC(C)C[C@H](NC(=O)[C@H](CS)NC(=O)[C@H](CC(=O)O)NC(=O)[C@@H](NC(=O)[C@H](CC(N)=O)NC(=O)[C@H](CCCNC(=N)N)NC(=O)[C@H](CC(C)C)NC(=O)CNC(=O)CNC(=O)[C@@H](N)CC(=O)O)C(C)C)C(=O)O [TBK1] (H-DGGLRNVDCL-OH) , is 77

###

Please go through the items and note down their Kd.
measuredOn: Scrib PDZ-1 domain (Homo sapiens, UniProt Q14160)
Construct: ROC curves of DomPep prediction for the three Scrib PDZ-1/2/3 domains
protocolText: In-solution fluorescence polarization binding of peptides to Scrib PDZ1
runParameters: Kd value of 100 µM applied as binding cutoff, NB without definition, read-out: Kd (µM) PDZ1
Residues, ends and D or L forms follow the SMILES beside them.

- CC(C)C[C@H](NC(=O)[C@H](CCCNC(=N)N)NC(=O)[C@@H]1CCCN1C(=O)[C@H](Cc1c[nH]cn1)NC(=O)[C@H](CO)NC(=O)[C@@H]1CCCN1)C(=O)N[C@@H](CCC(N)=O)C(=O)N[C@H](C(=O)N[C@@H](Cc1c[nH]cn1)C(=O)N[C@H](C(=O)O)C(C)C)[C@@H](C)O [KIRREL2] (H-PSHPRLQTHV-OH): > 100 µM
- CSCC[C@H](NC(=O)[C@@H](N)C(C)C)C(=O)N[C@@H](CCCNC(=N)N)C(=O)N[C@@H](CC(C)C)C(=O)N[C@@H](CCC(N)=O)C(=O)N[C@@H](CO)C(=O)N[C@@H](CCC(=O)O)C(=O)N[C@H](C(=O)N[C@@H](CO)C(=O)N[C@H](C(=O)O)C(C)C)[C@@H](C)O [VANGL2] (H-VMRLQSETSV-OH): 21.6 µM
- CC(C)C[C@H](NC(=O)[C@@H](N)C(C)C)C(=O)N[C@@H](Cc1ccc(O)cc1)C(=O)N1CCC[C@H]1C(=O)N[C@@H](CCCNC(=N)N)C(=O)N[C@@H](CCC(=O)O)C(=O)NCC(=O)N[C@H](C(=O)N[C@@H](CCC(=O)O)C(=O)N[C@H](C(=O)O)C(C)C)[C@@H](C)O [FOXl1] (H-VLYPREGTEV-OH): > 100 µM
- CC(C)C[C@H](NC(=O)[C@@H](NC(=O)[C@H](CCCCN)NC(=O)[C@H](CC(C)C)NC(=O)[C@H](Cc1ccccc1)NC(=O)[C@H](CCCCN)NC(=O)[C@H](CCC(=O)O)NC(=O)[C@H](Cc1ccccc1)NC(=O)[C@H](CC(=O)O)NC(=O)[C@@H](N)CCC(N)=O)[C@@H](C)O)C(=O)O [MTERFD1] (H-QDFEKFLKTL-OH; N-terminus and C-terminus assumed): > 100 µM
- CC(C)C[C@H](NC(=O)[C@H](CO)NC(=O)[C@@H](NC(=O)[C@@H](NC(=O)[C@@H](NC(=O)[C@H](Cc1ccccc1)NC(=O)[C@@H](NC(=O)[C@H](CC(=O)O)NC(=O)[C@H](CCC(=O)O)NC(=O)[C@@H]1CCCN1)[C@@H](C)O)[C@@H](C)O)C(C)C)[C@@H](C)O)C(=O)O [AHDC1] (H-PEDTFTVTSL-OH): 19.2 µM

Now turn to the next compound.
Kd recorded for this compound, CC(C)C[C@H](NC(=O)[C@H](CCCCN)NC(=O)[C@H](CO)NC(=O)[C@H](CC(N)=O)NC(=O)[C@@H](NC(=O)[C@H](CO)NC(=O)[C@H](Cc1c[nH]cn1)NC(=O)[C@@H]1CCCN1C(=O)[C@H](CC(C)C)NC(=O)[C@@H](N)CCC(=O)O)C(C)C)C(=O)O [ZADH2] (H-ELPHSVNSKL-OH; N-terminus and C-terminus assumed) , is > 100 µM
